tested on: MDA-MB-231; test: Growth inhibition of human MDA-MB-231 cells at 10 uM incubated for 48 hrs by sulforhodamine B assay relative to control; format: functional; details: MDA-MB-231, 48 h, read-out: GI
quantity: inhibition of growth at 10 µM (%)
The reply should be a number in %, with the unit left off.

# compound, assaySystem, quantity, resultNumber
data = [
    ("CCOC(=O)C1=C(C)NC(SCc2nnc(-c3ccc(Cl)cc3)o2)=NC1c1ccc(OC)cc1 (stereo not given)", "MDA-MB-231", "inhibition of growth at 10 µM", 10.2),
]

For the compound shown here, CC(=O)C1=C(C)NC(SCc2nnc(-c3ccc(Cl)cc3)o2)=NC1c1ccc(F)cc1 (stereo not given) , give the reported inhibition of growth at 10 µM.
17

----------
system: NCI-H226; assay: Growth inhibition of human NCI-H226 cells at 10 uM incubated for 48 hrs by sulforhodamine B assay relative to control; assay type: functional; conditions: NCI-H226, 48 h, read-out: GI
inhibition of growth at 10 µM: recorded values
Field format: number, assumed %, no unit text.

# compound, inhibition of growth at 10 µM / %
rows = [
    ("CCOC(=O)C1=C(C)NC(SCc2nnc(-c3ccc(Cl)cc3)o2)=NC1c1ccc(Cl)cc1Cl (centres undefined)", 21),
    ("CCOC(=O)C1=C(C)NC(SCc2nnc(-c3ccc(OC)cc3)o2)=NC1c1ccc(F)cc1 (centres undefined)", 10.4),
    ("CCOC(=O)C1=C(C)NC(SCc2nnc(-c3ccc(Cl)cc3)o2)=NC1c1ccc(F)cc1 (centres undefined)", 10.6),
    ("CC(=O)C1=C(C)NC(SCc2nnc(-c3ccc(C)cc3)o2)=NC1c1ccc(F)cc1 (centres undefined)", 10.4),
    ("CC(=O)C1=C(C)NC(SCc2nnc(-c3ccc(Cl)cc3)o2)=NC1c1ccc(F)cc1 (centres undefined)", 11.6),
    ("CCOC(=O)C1=C(C)NC(SCc2nnc(-c3ccc(Cl)cc3)o2)=NC1c1ccc(Br)cc1 (centres undefined)", 21.1),
]

Shifting focus to the compound that follows.
Suppose we examine the compound CCOC(=O)C1=C(C)NC(SCc2nnc(-c3ccc(Cl)cc3)o2)=NC1c1ccc(OC)cc1 (centres undefined) ; what inhibition of growth at 10 µM value has been reported?
11.8

----------
Reported inhibition of growth at 10 µM by item:
system: TK-10; assay: Growth inhibition of human TK10 cells at 10 uM incubated for 48 hrs by sulforhodamine B assay relative to control; format: functional; conditions: TK-10, 48 h, read-out: GI
Value expressed in %; do not type the unit.

The examples below pair each entry with its known result.
# compound, inhibition of growth at 10 µM (%)
measured = [
    ("CCOC(=O)C1=C(C)NC(SCc2nnc(-c3ccc(Cl)cc3)o2)=NC1c1ccc(Cl)cc1Cl (centres undefined)", 20.6),
    ("CCOC(=O)C1=C(C)NC(SCc2nnc(-c3ccc(Cl)cc3)o2)=NC1c1ccc(Br)cc1 (centres undefined)", 20.1),
    ("CCOC(=O)C1=C(C)NC(SCc2nnc(-c3ccc(Cl)cc3)o2)=NC1c1ccc(Cl)cc1 (centres undefined)", 22.5),
    ("CC(=O)C1=C(C)NC(SCc2nnc(-c3ccc(Cl)cc3)o2)=NC1c1ccc(Cl)cc1 (centres undefined)", 13.1),
    ("CC(=O)C1=C(C)NC(SCc2nnc(-c3ccc(Cl)cc3)o2)=NC1c1ccc(F)cc1 (centres undefined)", 14.6),
]

What does the record list as inhibition of growth at 10 µM for CCOC(=O)C1=C(C)NC(SCc2nnc(-c3ccc(Cl)cc3)o2)=NC1c1ccccc1 (centres undefined) ?
30.8

Same thing, different compound: CCOC(=O)C1=C(C)NC(SCc2nnc(-c3ccc(C)cc3)o2)=NC1c1ccc(F)cc1 (centres undefined)
28.4
